readout_kind: melting point

Examples with their reported melting point follow.
Prompt line: What value of melting point has been reported for the following compound? `COC(=O)NCc1cc(-c2ccn(-c3c(F)cc(C#N)cc3F)n2)ccc1C`
Response line: 171 to 174 °C

Prompt line: What value of melting point has been reported for the following compound? `COC(=O)NCc1cc(-c2cn(-c3c(Br)cc(OC)cc3Br)nn2)ccc1C`
Response line: 167 to 171 °C

Shift focus to the following entry.
Prompt line: What value of melting point has been reported for the following compound? `COC(=O)NCc1cc(-c2ncn(-c3c(F)cc([N+](=O)[O-])cc3F)n2)ccc1C`
Response line: 179 to 183 °C
